# method.summary: Clinical pharmacological trial: pharmacokinetics after single-dose edoxaban 15 mg in individuals with renal functional impairment
# experimental.context: human, in vivo, 15 mg, AUC0-24h Geometric least squares mean, single-dose 15 mg; mild renal impairment (50 ≦ CLCR ≦ 80 mL/min)
assay.endpoint: AUC(0-t) (ng·h/mL)
The answer is to be given in ng·h/mL; state only the numeric part.

Prompt: Given CN1CCc2nc(C(=O)N[C@@H]3C[C@@H](C(=O)N(C)C)CC[C@@H]3NC(=O)C(=O)Nc3ccc(Cl)cn3)sc2C1 , state its recorded AUC(0-t).
Completion: 569

----------
# method.summary: Clinical pharmacological trial: pharmacokinetics after single-dose edoxaban 15 mg in individuals with renal functional impairment
# experimental.context: human, in vivo, 15 mg, tmax Least squares mean, single-dose 15 mg; moderate renal impairment (30 ≦ CLCR < 50 mL/min)
assay.endpoint: Tmax (h)
The answer is to be given in h; state only the numeric part.

Prompt: Given CN1CCc2nc(C(=O)N[C@@H]3C[C@@H](C(=O)N(C)C)CC[C@@H]3NC(=O)C(=O)Nc3ccc(Cl)cn3)sc2C1 [edoxaban] , state its recorded Tmax.
Completion: 1.38
